Where these numbers come from: PubChem BioAssay AID652128

Experiment: DNA-binding compounds via dye displacement, dose response, artefact control for RAD52 inhibitor project, biochemical, fluorescence polarization, cherry-pick (AID 652128)
Conditions: Salmon sperm DNA/acridine orange FP displacement
The list shows a part of the results. Inconclusive results are not listed. Activity calls are given as the source filed them.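 The calls were made as follows: active = fitted half-maximal concentration for signal loss at or below twice the highest dose tested, in every separate run (actives reach about 64 µM in these data); inconclusive = runs disagree, or flat partial signal loss, or poor fit; inactive = the rest.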
Respond only with the outcome that fits, drawn from YES for active, NO for inactive

**Q:** Entry CC(C)[C@@H](C)/C=C/[C@@H](C)[C@H]1CC[C@@H]2[C@]1(C)CCC1[C@]23C=C[C@]2(C[C@@H](O)CC[C@]12C)N(c1ccc([N+](=O)[O-])cn1)O3 (stereo partly specified) : call = ?
**A:** NO

**Q:** Entry CN(C)CCNC(=O)c1cccc(-c2cnc3c(NC=O)cc(-c4cccc(C(F)(F)F)c4)cn23)c1 : call = ?
**A:** NO

**Q:** Entry CCC1CCCCN1CCCNC(=O)c1cc2c(Cl)nc3ccccc3c2s1 (stereo unspecified) : call = ?
**A:** YES

**Q:** Entry CCCCCCCCCCOC(=O)Cn1c(COc2ccc(C)cc2)[n+](C)c2ccccc21 : call = ?
**A:** NO

**Q:** Entry CCN(CC)CCOc1ccc2c(c1)C(=NNC(=O)c1ccccn1)c1cc(OCCN(CC)CC)ccc1-2 : call = ?
**A:** YES

**Q:** Entry CN(C)CCNC(=O)c1ccc(Cl)c2cc3ccccc3nc12 : call = ?
**A:** YES

**Q:** Entry COc1ccc(CC(N)c2csc(NC(=O)Nc3ccc(C(C)C)cc3)n2)cc1 (stereo unspecified) : call = ?
**A:** NO

**Q:** Entry Cc1c(CCOC(=O)CC23CC4CC(CC(C)(C4)C2)C3)sc[n+]1Cc1ccc([N+](=O)[O-])cc1 : call = ?
**A:** NO

**Q:** Entry COc1cccc(CNc2nc(NCc3cccs3)nc3ccsc23)c1 : call = ?
**A:** NO

**Q:** Entry CN(Cc1ccccc1F)c1cc2c(c3c1ccn3C)C1CCC2O1 (stereo unspecified) : call = ?
**A:** NO

**Q:** Entry CCN1CCN(CCNC(=O)c2ccc(/C=C3/Sc4ccccc4N(Cc4cccc(C)c4)C3=O)cc2)CC1 : call = ?
**A:** NO
